Cited source: ChEMBL document CHEMBL1134337

# TARGET_SYSTEM: D(2) dopamine receptor (Rattus norvegicus)
# ASSAY_REMARKS: Binding affinity at dopamine receptor D2 from rat by spiropiperidone displacement.

| COMPOUND | MEASURE_UNIT | % displacement of spiropiperidone |
| --- | --- | --- |
| CN1CCN(C2=Nc3ccccc3Oc3ccccc32)CC1 | % | 27 |
| OCCOCCN1CCN(C2=Nc3cc(Cl)ccc3Sc3ccccc32)CC1 | % | 58 |
| OCC1COCC(CN2CCN(C3=Nc4ccccc4Sc4ccccc43)CC2)O1 (stereo unspecified) | % | 4 |
| OCCOCCN1CCN(C2=Nc3ccccc3Oc3ccccc32)CC1 | % | 16 |
| OCCOCCN1CCN(C2=Nc3cc(O)ccc3Sc3ccccc32)CC1 | % | 24 |
| OCCOCCN1CCN(C2=Nc3cc(Cl)ccc3Cc3sccc32)CC1 | % | 60 |
| CN1CCN(C2=Nc3cc(Cl)ccc3Cc3ccccc32)CC1 | % | 40 |
| OCCOCCN1CCN(C2=Nc3cc(F)ccc3Sc3ccccc32)CC1 | % | 34 |
| CN1CCN(C2=Nc3cc(Cl)ccc3Sc3ccccc32)CC1 | % | 46 |
| OCCOCCN1CCN(C2=Nc3ccccc3Cc3ccccc32)CC1 | % | 22 |
| CN1CCN(C2=Nc3ccccc3Sc3ccccc32)CC1 | % | 35 |
